Just for reference, ChEMBL document CHEMBL1156322 is where these values come from.

Test system: Radical scavenging activity
Test: Antioxidant activity assessed as DPPH free radical scavenging activity at 1 uM after 4 mins by spectrophotometry
Assay type: functional
Calls of active or inactive are those of the source. The calls are words filed in the database; no cut-off is given here.
experimentalEndpoint: Activity

Examples with their reported Activity follow.
| compoundStructure | targetOfAssay | Activity |
| --- | --- | --- |
| COc1cc(OC)c(C(=O)c2ccccc2F)c(O)c1CN1CCCC1 | Radical scavenging activity | 4.24% |
| COc1cc(OC)c(C(=O)c2ccccc2Br)c(O)c1CN1CCN(C)CC1 | Radical scavenging activity | 3.95% |
| COc1cc(OC)c(C(=O)c2ccccc2Br)c(O)c1CN1CCCCC1 | Radical scavenging activity | 14.2% |
| COc1cc(OC)c(C(=O)c2cccc(Cl)c2)c(O)c1CN1CCCC1 | Radical scavenging activity | 1.6% |
| COc1cc(OC)c(C(=O)c2cccc(F)c2)c(O)c1CN1CCCCC1 | Radical scavenging activity | 5.98% |
| O=C(O)c1cc(O)c(O)c(O)c1 | Radical scavenging activity | 22.7% |
| COc1cc(OC)c(C(=O)c2cccc(F)c2)c(O)c1CN1CCOCC1 | Radical scavenging activity | inactive |
| COc1cc(OC)c(C(=O)c2cccc(F)c2)c(O)c1CN1CCCC1 | Radical scavenging activity | 4.51% |
| COc1cc(OC)c(C(=O)c2cccc(Cl)c2)c(O)c1CN1CCN(C)CC1 | Radical scavenging activity | inactive |

Moving on to another molecule below.
// Activity value for COc1cc(O)c(C(=O)c2ccccc2F)c(OC)c1 : 12.5%

###

System: THP-1
Test: Antiinflammatory activity in LPS-stimulated human THP1 cells assessed as inhibition of IL6 formation at 1 uM pretreated 30 mins before LPS challenge measured after 24 hrs by ELISA
Format: functional
Design: scale not given: the % may be the effect or the level left
Please note: 1 applies when Activity is 40% or greater, and -1 applies otherwise.

| compoundStructure | classification |
| --- | --- |
| COc1cc(OC)c(C(=O)c2cccc(Cl)c2)c(O)c1CN1CCCCC1 | -1 |
| COc1cc(OC)c(C(=O)c2ccccc2Br)c(O)c1CN1CCCC1 | -1 |
| COc1cc(OC)c(C(=O)c2cccc(Cl)c2)c(O)c1CN1CCN(C)CC1 | 1 |
| COc1cc(OC)c(C(=O)c2cccc(F)c2)c(O)c1CN1CCOCC1 | -1 |

Okay, now this compound:
Q. Given COc1cc(O)c(C(=O)c2ccccc2Br)c(OC)c1 , state whether its Activity is at least 40%.
A. -1

###

System: Radical scavenging activity
Experiment: Antioxidant activity assessed as DPPH free radical scavenging activity at 1 uM after 6 mins by spectrophotometry
Format: functional
Activity calls are given as the source filed them. The calls are words filed in the database; no cut-off is given here.
experimentalEndpoint: Activity

| compoundStructure | targetOfAssay | experimentalEndpoint | assayResult |
| --- | --- | --- | --- |
| COc1cc(OC)c(C(=O)c2cccc(Cl)c2)c(O)c1CN1CCN(C)CC1 | Radical scavenging activity | Activity | inactive |
| COc1cc(OC)c(C(=O)c2ccccc2F)c(O)c1CN1CCOCC1 | Radical scavenging activity | Activity | 4.74% |
| COc1cc(OC)c(C(=O)c2cccc(F)c2)c(O)c1CN1CCOCC1 | Radical scavenging activity | Activity | inactive |
| COc1cc(OC)c(C(=O)c2ccccc2F)c(O)c1CN1CCCC1 | Radical scavenging activity | Activity | 6.45% |
| COc1cc(OC)c(C(=O)c2ccccc2F)c(O)c1CN1CCCCC1 | Radical scavenging activity | Activity | 23% |
| COc1cc(OC)c(C(=O)c2ccccc2Br)c(O)c1CN1CCOCC1 | Radical scavenging activity | Activity | 1.9% |
| COc1cc(O)c(C(=O)c2ccccc2F)c(OC)c1 | Radical scavenging activity | Activity | 13.6% |
| COc1cc(OC)c(C(=O)c2ccccc2F)c(O)c1CN1CCN(C)CC1 | Radical scavenging activity | Activity | 4% |
| COc1cc(O)c(C(=O)c2cccc(Cl)c2)c(OC)c1 | Radical scavenging activity | Activity | 4.2% |

Next:
Summary line: COc1cc(O)c(C(=O)c2cccc(F)c2)c(OC)c1 , Radical scavenging activity, reported Activity = inactive
